Target: Trypanothione reductase (Trypanosoma cruzi)
Assay: Inhibition of Trypanosoma cruzi trypanothione reductase assessed as reduction in NADPH consumption at 10 uM using 40 uM trypanothione disulfide as substrate by spectrophotometric method
Listed here are molecules together with their documented inhibition.
PARAMETER_MEASURED: inhibition (%)

>>> print(df.to_string())
                              line_notation  parameter_measured  endpoint_result
0  O=C1c2cc3ccccc3cc2C(=O)c2c1oc1c2c(=O)oc2ccccc21          inhibition              2.1
1  COc1cccc2c1C(=O)c1c(oc3c1c(=O)oc1ccccc13)C2=O          inhibition             20.6
2          O=C1C=C(Oc2ccccc2)C(=O)c2ccccc21          inhibition               23
3  CC(=O)Oc1cccc2c1C(=O)c1c(oc3c1c(=O)oc1ccccc13)C2=O          inhibition             37.2
4  O=C1c2oc3c(c2C(=O)c2cccc(O)c21)c(=O)oc1ccccc13          inhibition               65

---

Biological target: CYP3A4 (Homo sapiens, UniProt P08684)
Sequence (P08684 whole entry): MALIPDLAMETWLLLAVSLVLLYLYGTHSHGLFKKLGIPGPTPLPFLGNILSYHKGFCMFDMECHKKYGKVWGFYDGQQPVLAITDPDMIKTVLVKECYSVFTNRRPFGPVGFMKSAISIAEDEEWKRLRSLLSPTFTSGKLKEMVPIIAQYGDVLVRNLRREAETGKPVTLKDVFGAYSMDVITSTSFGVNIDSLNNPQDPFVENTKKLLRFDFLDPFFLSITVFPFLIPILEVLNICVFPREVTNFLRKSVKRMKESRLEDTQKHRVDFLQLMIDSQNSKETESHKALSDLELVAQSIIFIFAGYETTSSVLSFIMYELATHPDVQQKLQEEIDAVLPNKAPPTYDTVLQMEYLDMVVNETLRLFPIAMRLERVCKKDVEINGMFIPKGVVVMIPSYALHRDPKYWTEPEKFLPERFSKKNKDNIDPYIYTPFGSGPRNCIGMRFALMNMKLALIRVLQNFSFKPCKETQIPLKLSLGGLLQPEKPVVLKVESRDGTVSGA
Assay: Inhibition of human CYP3A4 at 10 uM by P450-Glo assay relative to control
Format: ADME
PARAMETER_MEASURED: inhibition at 10 µM (%)

>>> df
                              line_notation  unit_abbreviation  endpoint_result
0  CC(=O)Oc1cccc2c1C(=O)c1c(oc3c1c(=O)oc1ccccc13)C2=O                  %             88.2
1  O=C1c2cccc(O)c2C(=O)c2c1oc1c2c(=O)oc2ccccc21                  %             9.44
2  Nc1ccc2oc(=O)c3c4c(oc3c2c1)C(=O)c1c(O)cccc1C4=O                  %             46.8
3  O=C1c2ccccc2C(=O)c2c1oc1c2c(=O)oc2ccccc21                  %             14.8

---

Test system: 786-0
Test: Cytotoxicity against human 786-O cells assessed as mitochondrial viability at 10 uM by CMXRos staining based high-content imaging analysis relative to control
Type: cell-based
Settings: 786-0, 10 µM
PARAMETER_MEASURED: Activity (%)

>>> print(df.to_string())
                              line_notation  measured_on  unit_abbreviation  endpoint_result
0  O=C1c2oc3c(c2C(=O)c2cccc(O)c21)c(=O)oc1ccccc13        786-0                  %            82.16
1  COc1cccc2c1C(=O)c1c(oc3c1c(=O)oc1ccccc13)C2=O        786-0                  %            96.22
2  O=C1c2ccccc2C(=O)c2c1oc1c2c(=O)oc2ccccc21        786-0                  %            89.15
3  O=C1c2cccc(O)c2C(=O)c2c1oc1c2c(=O)oc2ccccc21        786-0                  %            85.82
4  Nc1ccc2oc(=O)c3c4c(oc3c2c1)C(=O)c1c(O)cccc1C4=O        786-0                  %            97.94
5  O=C1c2cc3ccccc3cc2C(=O)c2c1oc1c2c(=O)oc2ccccc21        786-0                  %            89.59
6  COc1cccc2c1C(=O)c1oc3c(c1C2=O)c(=O)oc1ccccc13        786-0                  %            89.95
7  CC(=O)Oc1cccc2c1C(=O)c1oc3c(c1C2=O)c(=O)oc1ccccc13        786-0                  %            90.52
8  CC(=O)Oc1cccc2c1C(=O)c1c(oc3c1c(=O)oc1ccccc13)C2=O        786-0                  %            98.86

---

Biological target: CYP2D6 (Homo sapiens)
Sequence (P10635 whole entry): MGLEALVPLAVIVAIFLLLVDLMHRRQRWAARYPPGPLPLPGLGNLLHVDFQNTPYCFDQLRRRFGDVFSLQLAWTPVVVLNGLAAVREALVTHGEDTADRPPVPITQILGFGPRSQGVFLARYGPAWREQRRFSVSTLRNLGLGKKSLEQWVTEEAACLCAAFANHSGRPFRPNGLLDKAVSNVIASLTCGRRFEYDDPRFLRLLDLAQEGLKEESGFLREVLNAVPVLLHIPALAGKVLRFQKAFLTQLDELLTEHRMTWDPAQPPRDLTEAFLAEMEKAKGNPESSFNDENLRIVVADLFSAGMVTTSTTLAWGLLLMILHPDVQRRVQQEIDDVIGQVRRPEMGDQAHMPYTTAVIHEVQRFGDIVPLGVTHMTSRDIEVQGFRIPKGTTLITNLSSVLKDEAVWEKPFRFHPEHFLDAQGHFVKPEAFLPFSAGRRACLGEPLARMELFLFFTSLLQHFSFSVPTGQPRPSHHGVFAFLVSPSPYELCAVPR
Assay: Inhibition of human CYP2D6 at 10 uM by P450-Glo assay relative to control
Type: ADME
PARAMETER_MEASURED: inhibition at 10 µM

>>> df
                              line_notation   parameter_measured  endpoint_result
0  COc1cccc2c1C(=O)c1oc3c(c1C2=O)c(=O)oc1ccccc13  inhibition at 10 µM             108%
1  O=C1c2cc3ccccc3cc2C(=O)c2c1oc1c2c(=O)oc2ccccc21  inhibition at 10 µM              55%
2  COc1cccc2c1C(=O)c1c(oc3c1c(=O)oc1ccccc13)C2=O  inhibition at 10 µM             101%
3  CC(=O)Oc1cccc2c1C(=O)c1oc3c(c1C2=O)c(=O)oc1ccccc13  inhibition at 10 µM             108%
4  O=C1c2cccc(O)c2C(=O)c2c1oc1c2c(=O)oc2ccccc21  inhibition at 10 µM            95.2%
5  CC(=O)Oc1cccc2c1C(=O)c1c(oc3c1c(=O)oc1ccccc13)C2=O  inhibition at 10 µM             106%
6  O=C1c2oc3c(c2C(=O)c2cccc(O)c21)c(=O)oc1ccccc13  inhibition at 10 µM             102%
7  O=C1c2ccccc2C(=O)c2c1oc1c2c(=O)oc2ccccc21  inhibition at 10 µM              71%
8  Nc1ccc2oc(=O)c3c4c(oc3c2c1)C(=O)c1c(O)cccc1C4=O  inhibition at 10 µM            71.5%

---

Assay: Cytotoxicity against human A549 cells assessed as cell growth at 10 uM by CellTiter-Glo assay relative to control
Format: cell-based
Settings: read-out: Activity
PARAMETER_MEASURED: viability at 10 µM (%)

>>> df
                              line_notation  unit_abbreviation  endpoint_result
0  O=C1c2cccc(O)c2C(=O)c2c1oc1c2c(=O)oc2ccccc21                  %              167
1  CC(=O)Oc1cccc2c1C(=O)c1c(oc3c1c(=O)oc1ccccc13)C2=O                  %              157
2  O=C1c2oc3c(c2C(=O)c2cccc(O)c21)c(=O)oc1ccccc13                  %              138
3  O=C1c2ccccc2C(=O)c2c1oc1c2c(=O)oc2ccccc21                  %              146
4  COc1cccc2c1C(=O)c1oc3c(c1C2=O)c(=O)oc1ccccc13                  %              166
5  O=C1c2cc3ccccc3cc2C(=O)c2c1oc1c2c(=O)oc2ccccc21                  %              140
6  COc1cccc2c1C(=O)c1c(oc3c1c(=O)oc1ccccc13)C2=O                  %              130
7  CC(=O)Oc1cccc2c1C(=O)c1oc3c(c1C2=O)c(=O)oc1ccccc13                  %              183
8  Nc1ccc2oc(=O)c3c4c(oc3c2c1)C(=O)c1c(O)cccc1C4=O                  %              157

---

Target: Pteridine reductase 1 (Leishmania major) (UniProt Q01782)
Sequence (Q01782 whole entry): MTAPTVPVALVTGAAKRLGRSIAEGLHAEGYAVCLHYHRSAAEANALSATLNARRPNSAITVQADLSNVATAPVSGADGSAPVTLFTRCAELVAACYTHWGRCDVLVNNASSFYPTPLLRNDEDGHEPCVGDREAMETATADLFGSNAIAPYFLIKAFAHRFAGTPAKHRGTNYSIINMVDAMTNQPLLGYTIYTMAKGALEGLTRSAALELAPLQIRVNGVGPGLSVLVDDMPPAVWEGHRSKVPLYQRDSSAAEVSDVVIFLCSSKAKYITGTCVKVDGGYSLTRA
Test: Inhibition of Leishmania major pteridine reductase 1 assessed as reduction in conversion of dihydrobiopterin to tetrahydrobiopterin at 10 uM up to 50 mins in presence of NADPH by cytochrome c reduction coupled photometric assay relative to control
PARAMETER_MEASURED: inhibition

>>> print(df.to_string())
                              line_notation  parameter_measured  endpoint_result
0  COc1cccc2c1C(=O)c1c(oc3c1c(=O)oc1ccccc13)C2=O          inhibition            2.98%
1  COc1cccc2c1C(=O)c1oc3c(c1C2=O)c(=O)oc1ccccc13          inhibition           -3.51%
2  O=C1c2cccc(O)c2C(=O)c2c1oc1c2c(=O)oc2ccccc21          inhibition            -5.5%
3  O=C1c2cc3ccccc3cc2C(=O)c2c1oc1c2c(=O)oc2ccccc21          inhibition            5.16%

---

Test system: Trypanosoma brucei
Experiment: Inhibition of Trypanosoma brucei glyceraldehyde-3-phosphate dehydrogenase at 10 uM using GAP as substrate in presence of NAD+ by spectrophotometric method relative to control
Activity calls are given as the source filed them. The rule behind the calls is not given here.
PARAMETER_MEASURED: inhibition

In [3]: df
Out[3]:
                              line_notation  endpoint_result
0  COc1cccc2c1C(=O)c1c(oc3c1c(=O)oc1ccccc13)C2=O              88%
1  CC(=O)Oc1cccc2c1C(=O)c1c(oc3c1c(=O)oc1ccccc13)C2=O         inactive
2  O=C1c2cc3ccccc3cc2C(=O)c2c1oc1c2c(=O)oc2ccccc21         inactive
3  O=C1c2oc3c(c2C(=O)c2cccc(O)c21)c(=O)oc1ccccc13              64%
4  Nc1ccc2oc(=O)c3c4c(oc3c2c1)C(=O)c1c(O)cccc1C4=O              75%
5  CC(=O)Oc1cccc2c1C(=O)c1oc3c(c1C2=O)c(=O)oc1ccccc13         inactive
